Target: chymotrypsin activity in feces
Assay: Fecal Chymotrypsin Activity (Specific Fecal Enzyme Method)
Conditions: pooled infant fecal suspension, pH 7.6, 25° C.; read-out: IC50 Specific Fecal Enzyme Methods Chymotryp.
Could you please report measured IC50 for the items listed next?

The examples below pair each entry with its known result.
INSERT INTO measurements (molecule, experimental_system, measured) VALUES
  ('N=C(N)c1ccc(OCCCCCCOc2ccc(C(=N)N)cc2)cc1 [Hexamidine diisethionate]', 'chymotrypsin activity in feces', '> 1000 µM'),
  ('CC(=O)N[C@@H](CC(C)C)C(=O)N[C@@H](CC(C)C)C(=O)N[C@H](C=O)CCCNC(=N)N', 'chymotrypsin activity in feces', '> 500 µM');

Task: Please list IC50 recorded for the molecule CC1(C)[C@@H](O[C@H]2O[C@H](C(=O)O)[C@@H](O)[C@H](O)[C@H]2O[C@@H]2O[C@H](C(=O)O)[C@@H](O)[C@H](O)[C@H]2O)CC[C@]2(C)[C@H]3C(=O)C=C4[C@@H]5C[C@@](C)(C(=O)O)CC[C@]5(C)CC[C@@]4(C)[C@]3(C)CC[C@@H]12
Result: > 300 µM

Taken from patent US6703536B2.
